- system tested: N-terminal Xaa-Pro-Lys N-methyltransferase 1 (Homo sapiens); further: nearly all actives have a fitted effect of over 80% in size
- assay explanation: qHTS Assay for Inhibitors of N-terminal methyltransferase 1 (NTMT1): ThioGlo3 Assay Confirmatory Screen, Round 1.
- experimental setup: NTMT1 SAHH-coupled ThioGlo3 fluorescence, 30 min; series mostly up to 56.8 µM
Records with an inconclusive call do not appear. Active and inactive are the calls of the source. The call rests on the fitted dose curve; in most records, active means well fitted inhibition curve with a large enough effect; inconclusive means small, poorly fitted or top-dose-only effect; inactive means no such curve, though single readings can be large or run the other way.
Outcome codes: Yes for active, No for inactive

- molecule: "COc1cc2nc(N3CCCN(C)CC3)nc(N(C)C3CCN(C)CC3)c2cc1OC"
  class assignment: "Yes"
- molecule: "Nc1ncnc2c1ncn2[C@@H]1O[C@@H]2COP(O)(=S)O[C@H]2[C@H]1O (stereo not given in full)"
  class assignment: "No"
- molecule: "Nc1ncnc2c1ncn2[C@@H]1O[C@H](COP(=O)(O)OP(=O)(O)OP(=O)(O)O)[C@H]2OC3(O[C@H]21)C([N+](=O)[O-])=CC(=[N+]([O-])[O-])C=C3[N+](=O)[O-] (stereo not given in full)"
  class assignment: "No"
- molecule: "Nc1ncnc2c1ncn2[C@@H]1O[C@H](COP(=O)(O)CP(=O)(O)O)[C@@H](O)[C@H]1O"
  class assignment: "No"
- molecule: "CCN(CC)c1ncnc2c1ncn2[C@@H]1O[C@H](COP(=O)(O)OP(=O)(O)C(Br)(Br)P(=O)(O)O)[C@@H](O)[C@H]1O"
  class assignment: "No"
